experiment: 384-well plate pilot, post-Golgi transport modulator project, inhibition of yeast transport mutant growth (AID 636); conditions: absorbance 615 nm, about 18 h, stronger effect = higher value
Observable: inhibition (%)
Lab book: enter the figure in %, no units written.

CCCC(=O)N=C1SC2CS(=O)(=O)CC2N1c1ccc(CC)cc1 (stereo unspecified): -5.33
COC(=O)COc1ccc(S(=O)(=O)NCCC2=CCCCC2)cc1: 0
Cc1cc(C)c2nc(N)sc2c1: -6.62
C=CCN1C(=O)C2(c3ccccc31)C1CCCC=C1C(C#N)=C(N)C2(C#N)C#N (stereo unspecified): 2.53
CC(NC(=O)CSc1n[nH]c(=O)n1C1CC1)C12CC3CC(CC(C3)C1)C2 (stereo unspecified): -4

Now consider the entry below.
Quick note, inhibition for O=P(O)(O)c1ccccc1OCCOCCOc1ccccc1P(=O)(O)O landed at -6.08

---

experiment: growth inhibitors of H69AR lung tumor, primary screen, human, duplicate replicates (AID 580); settings: H69AR lung tumor cells viability, ATP luminescence, 72 h; at 10 µM;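 also: 100% = mean luminescence of untreated wells and 0% = no signal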
Calls of active or inactive are those of the source.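 The calls were made as follows: active = viability at or under a set limit in both replicates, limit being median viability minus 3 SD (cut at about 48% in these data, passing the limit was not always enough); inconclusive = at or under the limit in just one replicate; inactive = at or above the limit in both replicates.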
Returns: one label drawn from active, inactive

Worked examples, 4 compounds total:
CCn1nc(NC(=O)c2cccnc2)c2cc3ccccc3nc21: inactive
O=C(NCCc1ccccn1)c1ccc(COc2ccccc2)o1: inactive
CCOC(=O)C1=C(C)N=c2s/c(=C\c3cccn3C)c(=O)n2C1c1cccc(OC)c1OC (stereo not given): inactive
C=CCOc1ccc(C2C(C(=O)c3ccco3)=C(O)C(=O)N2Cc2cccnc2)cc1 (stereo not given): inactive

Please let me know the test result on file for CCCN1C=CC(=C2C(=O)c3ccccc3C2=O)C=C1 . active

---

test: reversal of MRP1-mediated doxorubicin resistance, pilot screen, H69AR cells, doxorubicin co-treatment (AID 601); details: H69AR cells + 2 uM doxorubicin, CellTiter-Glo, 72 h; measured here: viability with 2 uM doxorubicin; at 10 µM; stronger effect = lower value
Listed here are compounds together with their documented viability.
Lab book: enter the figure in %, no units written.

Solved cases (2 shown):
Cn1c(=N)n(CC(=O)O)c2ccccc21: 89.4
Cc1ccccc1S(=O)(=O)Cc1ccc(C(=O)NCc2cccnc2)o1: 87.6

Now consider the entry below.
Quick note, viability for CC(=O)N1CCN(C(C)=O)C1c1ccccc1 landed at 89.1

---

Listed here are compounds together with their documented viability.
experiment: growth inhibitors of H69AR lung tumor, primary screen, human, duplicate replicates (AID 580); conditions: H69AR lung tumor cells viability, ATP luminescence, 72 h; at 10 µM; stronger effect = lower value;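 also: 100% = mean luminescence of untreated wells and 0% = no signal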
Lab book: enter the figure in %, no units written.

Solved cases (3 shown):
COc1ccccc1N1C(=O)CC(Sc2nc(C)cc(C)n2)C1=O (configuration not stated): 83.4
COc1ccc(C)cc1S(=O)(=O)N(C)CC(=O)Nc1ccc2c(c1)OCCO2: 89.1
CCN1CCN(c2nc3c(C)cccn3c(=O)c2/C=C(\C#N)S(=O)(=O)c2ccccc2)CC1: 75.1

Quick note, viability for COc1cccc(CNC(=O)CCn2c(=O)oc3ccccc32)c1 landed at 86.4

Quick note, viability for CC1(C)Cc2c(sc3c2C2=NCCN2C=N3)CO1 landed at 90.9

---

assay: 384-well plate pilot, post-Golgi transport modulator project, inhibition of yeast transport mutant growth (AID 636); settings: absorbance 615 nm, about 18 h, stronger effect = higher value
Observable: inhibition (%)
Lab book: enter the figure in %, no units written.

Solved cases (5 shown):
O=S(=O)(c1ccccc1)c1nc(-c2ccco2)oc1NCCCN1CCOCC1: -1.73
CC(=O)c1ccc(-c2nc3ccccc3n2C)o1: -6.8
CN(C)S(=O)(=O)N1CCN(C(=O)N(c2ccccc2)c2ccccc2)CC1: 1.28
CC1=CC2=C(OC1N(C)C)c1cccc3cccc(c13)C2=O (stereo not drawn): 2.21
COC(=O)C1=CN(C(C)C)C=C(C(=O)OC)C1c1cc2c(cc1Br)OCO2: -1.47

Quick note, inhibition for COc1cc(C(=O)N2CCC(c3nc(-c4cccnc4)no3)CC2)cc(OC)c1OC landed at -2.16

Quick note, inhibition for Cc1ccc(NC2=NC(c3ccccc3)n3c(nc(C)cc3=O)N2)cc1 (stereo not drawn) landed at -2.11

Quick note, inhibition for O=C(COc1ccccc1)Nc1ccc(-c2nnc(-c3ccco3)o2)cc1 landed at -6.97

Quick note, inhibition for CC1(C)C(=O)Nc2ccccc2N1C(=O)COC(=O)Cn1cnc2ccccc2c1=O landed at -3.55

Quick note, inhibition for CCOC(=O)C1C(=O)N(C(=O)c2ccc(OC)cc2)CC1c1ccccc1 (stereo not drawn) landed at -0.65

Quick note, inhibition for CC(C)CNC(=O)c1ccccc1NC(=O)c1ccc(CN2CCOCC2)cc1 landed at -5.68

Quick note, inhibition for CCOC(=O)c1c(NC(=O)c2nn(CC)cc2Br)c(C#N)cn1-c1ccccc1 landed at -4.61

Quick note, inhibition for CCC(=O)N1CCN(CCN=CC2=C(O)CC(C)(C)CC2=O)CC1 landed at -1.6

---

Listed here are compounds together with their documented Her2 level.
target: Receptor tyrosine-protein kinase erbB-2 (Homo sapiens); assay: reducers of endogenous Her2 protein level, primary screen, SKBR3 breast tumor cells, AlphaScreen, ATP viability (AID 461); settings: 18-24 h, at 10 µM, stronger effect = lower value;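 also: lower value means less Her2 protein in the cells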
Lab book: enter the figure in %, no units written.

Cc1cc2c(=O)n(Cc3ccco3)c(SCC(=O)NCc3ccco3)nc2s1: 88
COc1ccc(-c2nc(C#N)c(N3CCOCC3)o2)cc1OC: 92
CCN(CC)c1ccc(-c2c(C#N)c(N)nc(OC)c2C#N)cc1: 88.5
C=CCn1c(CC#N)nnc1N1CCOCC1: 88

Now consider the entry below.
Quick note, Her2 level for Cc1ccc(S(=O)(=O)N2CCOCC2)cc1C(=O)OCC(=O)N1CCc2ccccc2C1 landed at 87.5

---

Listed here are compounds together with their documented viability.
assay: reversal of MRP1-mediated doxorubicin resistance, pilot screen, H69AR cells, doxorubicin co-treatment (AID 601); conditions: H69AR cells, CellTiter-Glo, 72 h; compound alone cytotoxicity; at 10 µM
Lab book: enter the figure in %, no units written.

Cn1cnc(S(=O)(=O)Nc2ccc(C(F)(F)F)cc2)c1: 91.7

Quick note, viability for COc1ccc(/C(O)=C2/C(=O)C(=O)N(CCN(C)C)C2c2ccccn2)cc1OC (stereo not given) landed at 91.5

Quick note, viability for O=S(=O)(c1ccc(F)c(Cl)c1)N1CCCC1 landed at 92.2

Quick note, viability for Cc1cccc(N(CC(N)=O)S(C)(=O)=O)c1C landed at 92

Quick note, viability for CC(=O)c1c(C)nn(CC(O)COc2ccc3c(c2)CCC3)c1C (stereo not given) landed at 87.4

Quick note, viability for CCN(CC)C(=O)CN(c1cc(Cl)ccc1OC)S(C)(=O)=O landed at 102

Quick note, viability for Cc1c2c(nc3nc4ccccc4n13)CC(C)(C)CC2=O landed at 70.9

Quick note, viability for O=C(/C=N/O)Nc1cccnc1 landed at 83.2

Quick note, viability for Cc1ccnc(NC(=O)CCC(=O)N(CC(=O)NC(C)(C)C)C2CCCC2)c1 landed at 93.2

Quick note, viability for Cc1ccc(C)c(N2CCN(S(=O)(=O)c3ccc4c(c3)OCCO4)CC2)c1 landed at 106

---

target: Receptor tyrosine-protein kinase erbB-2 (Homo sapiens) (UniProt P04626); assay: reducers of endogenous Her2 protein level, primary screen, SKBR3 breast tumor cells, AlphaScreen, ATP viability (AID 461); settings: 18-24 h, at 10 µM, stronger effect = lower value;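 also: lower value means less Her2 protein in the cells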
Sequence (P04626 whole entry, looked up): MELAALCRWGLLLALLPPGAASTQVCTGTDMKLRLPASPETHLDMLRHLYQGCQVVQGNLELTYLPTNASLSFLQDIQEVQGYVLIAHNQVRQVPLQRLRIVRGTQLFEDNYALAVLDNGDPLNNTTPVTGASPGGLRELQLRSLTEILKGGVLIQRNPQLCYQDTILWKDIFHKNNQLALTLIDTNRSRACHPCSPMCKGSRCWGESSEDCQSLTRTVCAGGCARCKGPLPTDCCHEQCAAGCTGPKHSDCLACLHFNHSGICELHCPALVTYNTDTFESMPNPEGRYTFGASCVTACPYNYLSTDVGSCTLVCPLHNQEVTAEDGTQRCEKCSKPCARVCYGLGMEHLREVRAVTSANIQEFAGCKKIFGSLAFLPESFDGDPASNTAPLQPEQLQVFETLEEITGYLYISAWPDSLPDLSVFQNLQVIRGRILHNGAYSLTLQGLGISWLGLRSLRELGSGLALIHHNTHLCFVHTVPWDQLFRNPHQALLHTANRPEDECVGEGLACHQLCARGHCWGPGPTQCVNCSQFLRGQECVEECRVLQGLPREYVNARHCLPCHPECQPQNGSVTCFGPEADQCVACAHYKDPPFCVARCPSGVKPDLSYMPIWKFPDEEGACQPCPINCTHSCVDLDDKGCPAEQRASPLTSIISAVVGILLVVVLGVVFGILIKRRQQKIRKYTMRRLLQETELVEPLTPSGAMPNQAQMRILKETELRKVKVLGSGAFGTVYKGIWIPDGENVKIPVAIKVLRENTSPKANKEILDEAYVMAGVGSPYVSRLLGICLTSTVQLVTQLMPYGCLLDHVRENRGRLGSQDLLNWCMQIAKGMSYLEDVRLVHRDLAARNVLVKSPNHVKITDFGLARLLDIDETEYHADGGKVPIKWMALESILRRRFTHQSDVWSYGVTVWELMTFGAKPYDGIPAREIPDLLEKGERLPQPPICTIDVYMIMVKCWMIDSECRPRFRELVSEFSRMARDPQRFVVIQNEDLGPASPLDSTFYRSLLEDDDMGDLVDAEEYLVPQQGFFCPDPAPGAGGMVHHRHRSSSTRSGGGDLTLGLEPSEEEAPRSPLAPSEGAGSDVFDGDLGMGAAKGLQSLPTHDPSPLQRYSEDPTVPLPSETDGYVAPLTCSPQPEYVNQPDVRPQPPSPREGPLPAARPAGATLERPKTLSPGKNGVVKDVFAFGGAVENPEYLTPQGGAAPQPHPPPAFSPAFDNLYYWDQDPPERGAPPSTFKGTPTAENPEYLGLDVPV
Observable: Her2 level (%)
Lab book: enter the figure in %, no units written.

CC1CCN(S(=O)(=O)c2ccc(NC(=O)CSc3nnnn3C)cc2)CC1: 103
COc1ccc(CCn2c(NCCCN3CCOCC3)nc3c2c(=O)[nH]c(=O)n3C)cc1: 86
c1ccc2c(c1)[nH]c1c(N3CCC4(CC3)OCCO4)ncnc12: 77
CC(=O)Nc1ccc(Oc2cc(C#N)c(C#N)cc2N2CCCCCC2)cc1: 76
CN1CCc2nc(SCC(=O)Nc3ccc(F)cc3)c(C#N)cc2C1: 91.5
Cc1noc(COc2ccccc2OCC(O)CNC(C)(C)C)n1 (centres undefined): 89

Quick note, Her2 level for COc1ccc(S(=O)(=O)N(C)c2ccc(C(=O)N3CCOCC3)cc2)cc1 landed at 89.5

Quick note, Her2 level for Cc1ccc(Nc2nc(CSc3nnnn3C)cs2)cc1 landed at 96

Quick note, Her2 level for COCCN1CCN(c2c(C)c(C)nc3cc(-c4cccc(OC)c4)nn23)CC1 landed at 83.5

Quick note, Her2 level for COc1cc(CN2CCN(C(=O)CC(C)C)CC2)cc(OC)c1O landed at 93.5

Quick note, Her2 level for Cc1ccc(NC2c3ncccc3C(=O)N2C2CCCCC2)cc1C (centres undefined) landed at 94.5

Quick note, Her2 level for Cc1cc(NC(=O)COc2cccc(Oc3ccccc3)c2)no1 landed at 90

Quick note, Her2 level for CN(C)c1ccc(NC(=O)c2cc3c(=O)n4ccccc4nc3n2C)cc1 landed at 72.5

Quick note, Her2 level for c1ccc(-c2cc3c(nn2)CCc2nonc2-3)cc1 landed at 102
